molecular target: Matrix-associated proTGFβ1 (hLTBP1-proTGFβ1 and hLTBP3-proTGFβ1); test: BLI (Octet)
measurementLabel: ECM AVRG (average KD) (nM)
Output spec: scalar in nM, unitless text.

Some binders with known ECM AVRG (average KD) results, for comparison:
{"binder": "Ab21 (antibody, V domains shown) VH: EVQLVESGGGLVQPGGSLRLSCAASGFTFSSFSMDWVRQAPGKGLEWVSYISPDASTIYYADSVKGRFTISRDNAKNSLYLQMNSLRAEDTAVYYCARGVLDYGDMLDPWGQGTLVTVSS VL: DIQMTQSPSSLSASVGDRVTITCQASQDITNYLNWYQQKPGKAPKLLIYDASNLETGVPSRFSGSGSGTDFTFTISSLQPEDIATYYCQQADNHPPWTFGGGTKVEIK", "unitsOfMeasure": "nM", "endpointResult": 0.246}
{"binder": "Ab30 (antibody, V domains shown) VH: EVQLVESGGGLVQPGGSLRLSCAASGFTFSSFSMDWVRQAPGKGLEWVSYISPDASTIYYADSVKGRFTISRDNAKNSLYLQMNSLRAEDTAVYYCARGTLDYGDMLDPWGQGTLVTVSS VL: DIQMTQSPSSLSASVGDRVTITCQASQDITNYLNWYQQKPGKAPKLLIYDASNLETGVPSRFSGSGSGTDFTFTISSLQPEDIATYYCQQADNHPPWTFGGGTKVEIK", "unitsOfMeasure": "nM", "endpointResult": 0.296}

Could you now consider this next binder?
Looking for the measured ECM AVRG (average KD) of Ab25 (antibody, V domains shown) VH: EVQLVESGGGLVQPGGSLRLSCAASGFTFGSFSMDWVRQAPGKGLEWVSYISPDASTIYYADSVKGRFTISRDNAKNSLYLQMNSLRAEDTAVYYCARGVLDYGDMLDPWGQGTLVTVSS VL: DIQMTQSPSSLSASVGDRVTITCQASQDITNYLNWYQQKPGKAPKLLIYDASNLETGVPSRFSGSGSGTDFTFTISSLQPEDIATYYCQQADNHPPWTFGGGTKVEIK , can you help?
0.184
